Test system: A427
Assay: EZH2 inhibition sensitivity, A427
Format: cell-based
Details: Homo sapiens, A-427, SMARCA2 mRNA/protein loss, SMARCA4 Mutations, KRAS Mutations, read-out: Compound D IC50
pIC50: −log10 of the molar value.

# COMPOUND, pIC50
records = [
    ("CCN(c1cc(-c2ccc(CN3CCOCC3)cc2)cc(C(=O)NCc2c(C)cc(C)[nH]c2=O)c1C)[C@H]1CC[C@H](N(C)C)CC1", 5.64),
]

----------
Test system: SCCOHT cell line Bin-67
Assay: 14 day proliferation study in Bin-67
Assay type: cell-based
Settings: 336 h; Bin-67, 14 day proliferation, 0.01-10 μM
Experimental: FIG. 13C is a graph displaying the results of a 14 day proliferation study with Compound D in the SMARCA4- and SMARCA2-negative small cell carcinoma of the ovary, hypercalcemic type (SCCOHT) cell line Bin-67. Growth curves are shown for 8 different treatment conditions ranging from 0.01-10 μM. A panel of ovarian cancer cell lines of different histologies was subjected to proliferation assays in 2-D tissue culture for 14 days in the presence of increasing concentrations of an EZH2 inhibitor. […]

# COMPOUND, IC50 (nM)
records = [
    ("CCN(c1cc(-c2ccc(CN3CCOCC3)cc2)cc(C(=O)NCc2c(C)cc(C)[nH]c2=O)c1C)[C@H]1CC[C@H](N(C)C)CC1", 10),
]
